Biological target: HCV polymerase (Hepatitis C virus genotype 1b)
Sequence (Q9WMX2 2420-3010): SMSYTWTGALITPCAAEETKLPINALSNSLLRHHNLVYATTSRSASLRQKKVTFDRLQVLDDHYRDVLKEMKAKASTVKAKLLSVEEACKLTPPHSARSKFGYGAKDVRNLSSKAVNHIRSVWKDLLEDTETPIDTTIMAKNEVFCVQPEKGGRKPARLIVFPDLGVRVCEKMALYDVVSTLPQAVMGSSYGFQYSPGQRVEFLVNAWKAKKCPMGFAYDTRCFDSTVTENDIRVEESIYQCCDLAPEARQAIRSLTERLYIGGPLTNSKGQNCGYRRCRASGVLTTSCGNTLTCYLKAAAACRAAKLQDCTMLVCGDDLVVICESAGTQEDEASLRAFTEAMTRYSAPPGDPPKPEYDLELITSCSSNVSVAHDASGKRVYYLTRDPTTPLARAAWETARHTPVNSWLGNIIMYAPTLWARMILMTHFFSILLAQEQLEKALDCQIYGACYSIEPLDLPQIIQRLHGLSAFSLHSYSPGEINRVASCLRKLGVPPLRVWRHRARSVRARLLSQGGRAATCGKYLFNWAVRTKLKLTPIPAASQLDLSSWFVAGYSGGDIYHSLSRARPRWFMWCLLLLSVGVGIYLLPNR
Assay: Biochemical HCV polymerase inhibition
Readout type: IC50 (nM)

Smiles str	Quantitative result
O=c1ccn([C@@H]2O[C@H](COP(=O)(O)OP(=O)(O)OP(=O)(O)O)[C@@H](O)[C@]23CCS3)c(=O)[nH]1	740
Nc1nc2c(ncn2[C@@H]2O[C@H](COP(=O)(O)OP(=O)(O)OP(=O)(O)O)[C@@H](O)[C@]23CCS3)c(=O)[nH]1	180
O=c1ccn([C@@H]2O[C@](F)(COP(=O)(O)OP(=O)(O)OP(=O)(O)O)[C@@H](O)[C@]23CCS3)c(=O)[nH]1	690
